# Tested on: lambsquarters (Chenopodium album)
# assay summary: Test C pre/postemergence
# Type: in vivo
# experimental setup: Preemergence, 62 g ai/ha; scale 0 to 100, 0 no effect, 100 complete control
Binary call on Plant response rating, Lambsquarters with cut-off 80: strictly below means Criterion met, and equality or higher means Criterion not met.

# count of solved cases: 3
CNN=Cc1nc(C2CC2)nc(N)c1Br: Criterion not met
CCOC(=O)C(Cl)c1nc(C2CC2)nc(N)c1Br (stereo not shown): Criterion met
COC(=O)c1nc(C2CC2)nc(N=CN(C)C)c1Br: Criterion not met

Ask: Decide: Plant response rating, Lambsquarters of CCCOC(=O)c1nc(C2CC2)nc(N)c1Br strictly below 80?
Reply: Criterion not met

Ask: Decide: Plant response rating, Lambsquarters of Nc1nc(-c2ccc(Cl)cc2)nc(C(=O)[O-])c1Cl.[Na+] strictly below 80?
Reply: Criterion not met

Ask: Decide: Plant response rating, Lambsquarters of COC(=O)Cc1nc(C2CC2)nc(N)c1Br strictly below 80?
Reply: Criterion not met
